Kindly state melting point for each of the entries shown.

Guide cases for melting point, answers given:
- compound: "CC(C)C(c1ccccc1N1CCCCC1)C(C(N)=O)c1ccc(C(=O)O)cc1 (stereo not given)"
  observedValue: "215 to 217 °C"
- compound: "CCCCCCCCOc1cc2c(cc1/C(C)=C/c1ccc(C(=O)OC)cc1)C(C)(C)CCCS2(=O)=O"
  observedValue: "79 to 80 °C"
- compound: "O=C(C=Cc1ccc2c(c1)OCO2)N1CCc2c([nH]c3ccccc23)C1c1ccc2c(c1)OCO2 (stereo not given)"
  observedValue: "233 °C"
- compound: "CSc1ccc(-n2c(-c3ccc(C)cc3)nc(SC)c(C#N)c2=O)cc1"
  observedValue: "230 to 233 °C"
- compound: "O=Cc1cc(-c2cccs2)ccc1O"
  observedValue: "102 to 103 °C"
- compound: "COc1ccc(Cc2c(-c3ccc(OC(F)F)c(OC4CC4)c3)[nH]c3cn[nH]c(=O)c23)cn1"
  observedValue: "220 to 221 °C"

Please give melting point for each item listed below.
1. Cc1ccc(CN2CCC(c3cc(-c4ccc(Cl)cc4)[nH]n3)CC2)cc1
2. O=C1Cc2cc(C(=O)CCl)ccc2N1
3. Cc1ccc(S(=O)(=O)N(NC=O)c2ccc(NC(=S)Oc3ccccc3)cc2)cc1
4. Cn1c(=O)cc(-c2cccc(Cl)c2)c2cc(C(O)(c3ccc(Cl)cc3)c3cnccc3Cl)ccc21 (stereo not given)
5. CS(=O)(=O)c1ccc(-c2cc(Cl)c(Cl)cc2-c2ccc(F)cc2)cc1
6. COc1cc(C(=O)OCC2(N(C)C)CCSc3ccccc32)cc(OC)c1OC (stereo not given)
7. CC(Cl)c1nc2ccccc2c(=O)o1 (stereo not given)

1: 181 to 183 °C; 2: 236 to 239 °C; 3: 195 to 196 °C; 4: 178 °C; 5: 144 °C; 6: 146 to 148 °C; 7: 90 °C

Please supply melting point for each of the following items, keeping them in order.
1. Cc1cc(=O)n(CCBr)o1
2. O=CCN1C=C(C(=O)O)Cc2cc(F)c(F)c(F)c21
3. CCCCCCCCCCCCCCCCCCOc1cc(OCc2ccccc2)cc(C(=O)N(CC(=O)O)CC(=O)O)c1
4. C=CCOc1ccc(COc2ccc(CC(=O)O)cc2Cl)cc1
5. CCOC(=O)N=P(c1ccccc1)(c1ccccc1)c1ccccc1CN1CCCC1
6. Cc1[nH]c(=O)n(-c2cc(OC(C)C)c(Cl)cc2F)c(=O)c1F
7. CCCCc1nc2c(N)nc3ccccc3c2n1CCCCON=C(C)C
8. CC(C)n1nc(-c2sc(C(N)=O)nc2-c2ccc(F)cc2)ccc1=O

["39 to 40 °C", "220 to 222 °C", "93 to 95 °C", "106 to 107 °C", "120 to 122 °C", "162 to 164 °C", "115 to 117 °C", "226 to 228 °C"]

###

Provide the recorded melting point for the entries that follow.

Use these answered entries as a reference point.
- moleculeSmiles: "NCc1ccc(N2C(=O)N(c3ccccc3Br)Cc3cnc(Nc4ccccc4)nc32)cc1"
  observedValue: "133 to 136 °C"
- moleculeSmiles: "COc1ccncc1Nc1nc(N2CCOCC2)nc(-n2c(C(F)F)nc3c(OC)cccc32)n1"
  observedValue: "239 to 241 °C"
- moleculeSmiles: "Cc1ccc(C)n1CCNC(N)=O"
  observedValue: "139 to 141 °C"
- moleculeSmiles: "Cn1cccc1-c1ccc(C(F)(F)F)cc1"
  observedValue: "39 to 40 °C"
- moleculeSmiles: "COC(=O)c1ccc(-c2ccc(OC)cc2)cc1"
  observedValue: "170 to 173 °C"
- moleculeSmiles: "O=C(O)c1ccc(I)nc1"
  observedValue: "177 to 179 °C"
- moleculeSmiles: "C#Cc1ccc(CO[C@@H]2COc3nc([N+](=O)[O-])cn3C2)cn1"
  observedValue: "168 to 170 °C"
- moleculeSmiles: "C[C@H]1C[C@@](O)(c2cnc(Cl)s2)CCO1"
  observedValue: "40 to 42 °C"

For every item in the list below, what is its measured melting point?
1. Nc1ccc(CP2(=O)OCCCO2)cc1
2. Cc1ccc(C(=O)c2cc(-c3cccnc3)c(N3CCOCC3)s2)cc1
3. NS(=O)(=O)Oc1ccc(C(=O)c2ccc(OS(N)(=O)=O)cc2)cc1

1. 172 to 173 °C
2. 134 °C
3. 182 to 185 °C

###

experimentalReadout: melting point

- compound: "O=CNC1Cc2ccccc2C1"
  melting point: "72 to 74 °C"
- compound: "Cc1sc(C=O)cc1Br"
  melting point: "58 °C"
- compound: "O=C(O)c1ccc(OCCCC2CCN(c3ccc(Cl)nn3)CC2)cc1"
  melting point: "209 °C"
- compound: "OCC1Cc2c([nH]c3ccccc23)CN1C(=S)SCc1ccc(Cl)cc1 (stereo unspecified)"
  melting point: "175 to 176 °C"
- compound: "CCOc1ccc(C2SC(=N)NC2=O)c(OCC)c1 (stereo unspecified)"
  melting point: "179 to 181 °C"

Read the next record carefully.
What melting point value was documented for this compound, COc1ccc2c(-c3ccccc3)c(C(=O)O)c(=O)[nH]c2c1 ?
292 to 294 °C

###

experimentalReadout: melting point

Here is how some molecules turned out for melting point.
- molecule: "Cc1sc2ncc(C(=O)CC(O)c3ccccc3)n2c1C (stereo unspecified)"
  melting point: "113 °C"
- molecule: "CCOC(=O)c1cc(O)n(C)n1"
  melting point: "151 to 153 °C"
- molecule: "COc1cccc(CNc2nc(NC[C@@H](C)O)nc3c2ncn3C(C)C)c1O"
  melting point: "100 to 103 °C"
- molecule: "CCCCCCCCNCC(O)COc1ccc(SC)cc1 (stereo unspecified)"
  melting point: "79.5 to 80.5 °C"
- molecule: "CC(C)n1nc(-c2cc(C(=O)NCc3ccccc3)cnc2-c2ccccc2)ccc1=O"
  melting point: "205 to 206 °C"

Below is a list of molecules. For each, state its recorded melting point.
1. COC(=O)Cn1c(C(=O)O)cc2cc(C)cc(C)c21
2. CCC(CC)(COc1cc(C)c2nc(C)nn2n1)CS(N)(=O)=O
3. COc1ccc2cc(C(=O)NCc3cc([N+](=O)[O-])cc([N+](=O)[O-])c3)c(=O)oc2c1
4. O=C1c2ccccc2-n2cnc(-c3noc(CCl)n3)c2[C@@H]2CCN12
5. Cc1nc(Cl)c2nnn(-c3ccc(C(C)C)cc3Br)c2n1
6. CCOP(=O)(Cc1ccc(NC(=O)/C=C/c2c(C)noc2-c2ccccc2)cc1)OCC
7. O=C(NCCO)c1ccc(-c2cccc3cc(Cc4cccc(C(F)(F)F)c4)sc23)nc1

1. 221 to 223 °C
2. 159 to 160 °C
3. 233 °C
4. 205 to 207 °C
5. 72 to 74 °C
6. 155 to 156 °C
7. 160 to 161 °C

###

Please respond with reported melting point for every item in the list.

Known melting point results, listed for orientation:
- compound: "O=C(O)c1ccc(NC(=O)C(c2ccc(Cl)cc2)c2ccc(Cl)cc2)cc1"
  melting point: "272 to 274 °C"
- compound: "COc1cc(C(C)C)c2c(c1)S(=O)(=O)N(COC(=O)c1sccc1Cl)C2=O"
  melting point: "138 to 140 °C"
- compound: "CCOC(=O)c1cnc(Nc2ccc(N(C)C)cc2)[nH]c1=O"
  melting point: "246 to 248 °C"

Record melting point for all entries; do not skip any.
1. CC(C)N(CCCC1CCN(CCNC(=O)N2c3cc(Cl)ccc3C(=O)Nc3cccnc32)CC1)C(C)C
2. CCC(C)c1cc(C=O)c(O)c(S(C)(=O)=O)c1 (stereo not given)

["175 to 176 °C", "68 to 70 °C"]

###

Kindly supply the reported melting point values for the records listed here.

// known answers, use as guide
- compound: "Cc1ccc(-c2c3c(cc4ccc(O)cc24)-c2ccc(O)cc2CO3)cc1C"
  melting point: "218 to 221 °C"
- compound: "O=C(NS(=O)(=O)c1ccccc1)c1ccc(C=CC(=O)N2CCc3c([nH]c4ccccc34)C2c2ccc3c(c2)OCO3)cc1 (centres undefined)"
  melting point: "134 °C"
- compound: "Cc1cc(C=Cc2ccc(-c3ccc(C(F)(F)F)cc3)cc2)ccc1OCC(=O)O"
  melting point: "243 to 245 °C"

Then there is this compound:
Data request, read-out melting point, for NS(=O)(=O)c1ccc(-n2nc(C(F)F)cc2-c2nc3ccc(Cl)cc3s2)cc1
242 to 244 °C

###

Give melting point for every item shown.

Solved cases (5 shown):
- molecule: "O=C(O)c1cc(OCC(F)(F)F)ccc1OCC(F)(F)F"
  melting point: "99 to 101 °C"
- molecule: "O=C(NCCc1ccc(O)cc1)c1ccc2n1Cc1ccccc1N(C(=O)COc1ccc(Cl)cc1)C2"
  melting point: "206 to 207 °C"
- molecule: "CCN(CC)C(=O)n1cnc(S(=O)(=O)CC2CC2)n1"
  melting point: "68 to 74 °C"
- molecule: "O=S(=O)(CC(O)Cn1ccnc1)c1ccccc1 (centres undefined)"
  melting point: "153 to 156 °C"
- molecule: "Cc1ccc2c(c1)-c1csc(N)c1C2=O"
  melting point: "157 to 159 °C"

// each molecule listed below needs its melting point
1. CCOC(=O)C(C)O/N=C(\C(=O)Sc1nc2ccccc2s1)c1csc(N)n1 (centres undefined)
2. CCOCc1nc(C(C)(C)O)c(C(=O)OCOC(=O)C(C)(C)C)n1Cc1ccc(-c2ccccc2C(=O)O)cc1
3. CCOC(=O)C1=C(C)NC(C#N)=C(C(=O)OCC)C1c1cc([N+](=O)[O-])ccc1Cl (centres undefined)
4. O=c1[nH]c2ccccc2n1CCCN1CCC(C(O)(c2ccc(F)cc2)c2ccc(F)cc2)CC1

1: 113 °C; 2: 65 °C; 3: 204 to 206 °C; 4: 141 to 143 °C
